- PROTOCOL NOTES: Quantitative High-Throughput drug screen in 47 multiple myeloma cell lines against the NCATS MIPE library collection: SKMM1_PLB cell viability assay (AID 1919863); also: potency is read from the fitted curve at half-maximal effect; nearly all actives have a fitted effect of over 35% in size
- MEASUREMENT PARAMETERS: SKMM1 myeloma viability, CellTiter-Glo ATP, 48 h
- Source text: PI: Beverly A. Mock Ph.D. Laboratory of Cancer Biology and Genetics, Center for Cancer Research, National Cancer Institute, National Institute of Health, Bethesda, Maryland […] 5; Detector; 425V; Luminescence; Viewlux PerkinElmer. […] 1. […] Briefly, the corresponding myeloma cell lines were screened in 1,536-well plates with 500 cells, 5-uL per well for inhibition of cell viability (assessed by measuring ATP levels with CellTiterGlo). […]
Results filed as inconclusive are left out. Active and inactive are the calls of the source. Calls follow the shape of the dose curve; as a rule, active = well fitted cell-killing curve with a large enough effect; inconclusive = small, poorly fitted or top-dose-only effect, or effect the other way; inactive = no such curve, though single readings can be large or run the other way.
Parameter: Potency. Scope: all listed entries.

Take a look at these entries with their results.
> print(dat)
                                   molecule             result
1  NC(=O)c1noc([C@H](CCCC2CCCCC2)CC(=O)NO)n1   13.2 µM (active)
2  Cc1cccc(-c2[nH]c(C(C)(C)C)nc2-c2ccc3c(c2)OCO3)n1   20.9 µM (active)
3  C[C@@H](NC(=O)c1ncnc(N)c1Cl)c1ncc(C(=O)Nc2cc(C(F)(F)F)c(Cl)cn2)s1   16.6 µM (active)
4   O=C1Nc2ccc(I)cc2C1=Cc1cc(Br)c(O)c(Br)c1   18.7 µM (active)
5  CCC[C@H](Nc1nc(-c2ccc(NC(=O)NCC)c(OC)c2)ncc1C)c1cccnc1  0.003 µM (active)

Q: I have this molecule here, Cc1cc2nc3c(=O)[nH]c(=O)nc-3n(CC(O)C(O)C(O)CO)c2cc1C (configuration not stated) , and I need its recorded Potency.
A: 20.9 µM (active)

Q: I have this molecule here, CC1(C)CC(=O)c2c(C(F)(F)F)nn(-c3ccc(C(N)=O)c(NC4CCC(O)CC4)c3)c2C1 (configuration not stated) , and I need its recorded Potency.
A: 0.187 µM (active)

---

- MEASUREMENT TARGET: Cytochrome P450 1A2 (Homo sapiens) (UniProt P05177)
- Sequence (P05177 whole entry, looked up): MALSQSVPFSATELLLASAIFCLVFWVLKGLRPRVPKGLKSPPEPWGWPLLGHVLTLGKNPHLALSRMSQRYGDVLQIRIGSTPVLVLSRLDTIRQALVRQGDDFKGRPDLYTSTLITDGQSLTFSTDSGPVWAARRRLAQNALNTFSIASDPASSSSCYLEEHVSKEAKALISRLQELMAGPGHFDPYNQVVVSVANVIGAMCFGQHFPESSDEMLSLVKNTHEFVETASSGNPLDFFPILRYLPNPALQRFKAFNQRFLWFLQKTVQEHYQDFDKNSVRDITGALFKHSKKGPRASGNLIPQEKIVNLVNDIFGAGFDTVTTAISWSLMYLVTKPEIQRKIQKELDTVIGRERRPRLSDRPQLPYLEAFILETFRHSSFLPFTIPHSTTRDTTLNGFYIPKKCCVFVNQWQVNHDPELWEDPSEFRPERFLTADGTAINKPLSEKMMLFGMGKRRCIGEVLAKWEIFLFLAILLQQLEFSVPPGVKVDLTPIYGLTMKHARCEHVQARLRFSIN
- PROTOCOL NOTES: p450-cyp1a2 (AID 410); also: potency is read from the fitted curve at half-maximal effect
- MEASUREMENT PARAMETERS: recombinant CYP1A2, luciferin-ME demethylation, luminescence; series mostly up to 25.6 µM
Records with an inconclusive call do not appear. Calls of active or inactive are those of the source. Calls come from the whole dose curve.
OUTCOME MEASURE: Potency

Take a look at these entries with their results.
COMPOUND	Potency
Clc1ccc(COC(Cn2ccnc2)c2ccc(Cl)cc2Cl)c(Cl)c1 (configuration not stated)	1.26 µM (active)
Cc1cc(NC(=O)Nc2ccc(N(C)C)cc2)c2cc(F)cc(F)c2n1	0.126 µM (active)
NCC1CCC(C(=O)O)CC1 (configuration not stated)	inactive
CN[C@H]1[C@@H](O[C@@H]2[C@H](O[C@@H]3[C@@H](O)[C@@H](O)[C@@H](N=C(N)N)[C@@H](O)[C@@H]3N=C(N)N)O[C@H](C)[C@@]2(O)C=O)O[C@@H](CO)[C@@H](O)[C@H]1O	inactive
CN(C)c1ccccc1CN1CCCN(Cc2ccccc2N(C)C)C1c1ccncc1	inactive

Q: I have this compound here, `CCC(=C(CC)c1ccc(O)cc1)c1ccc(O)cc1` , and I need its recorded Potency.
A: 15.8 µM (active)

Q: I have this compound here, `C=C1c2cccc(O)c2C(O)=C2C(=O)[C@@]3(O)C(O)=C(C(N)=O)C(=O)[C@@H](N(C)C)[C@@H]3[C@@H](O)[C@H]12` , and I need its recorded Potency.
A: inactive

---

- PROTOCOL NOTES: Quantitative High-Throughput drug screen in 47 multiple myeloma cell lines against the NCATS MIPE library collection: KMM1_JCRB cell viability assay (AID 1918960); also: nearly all actives have a fitted effect of over 30% in size
- MEASUREMENT PARAMETERS: KMM1 myeloma viability, CellTiter-Glo ATP luminescence, 48 h; series mostly up to 45.8 µM
Inconclusive results are not listed. Calls of active or inactive are those of the source. The call rests on the fitted dose curve; in most records, active means well fitted cell-killing curve with a large enough effect; inconclusive means small, poorly fitted or top-dose-only effect, or effect the other way; inactive means no such curve, though single readings can be large or run the other way.
Lab note: assign the record to one of 1 (active), 0 (inactive)

Below, 8 molecules whose answers are already recorded.
> print(dat)
                                   molecule  class
1  CCOC(=O)[C@H](CCc1ccccc1)N[C@@H](C)C(=O)N1CCCC1C(=O)O (stereo not given in full)      0
2  COc1nccc(-c2c(-c3ccc(F)cc3)ncn2C2CCNCC2)n1      0
3        CCC=CC[C@H]1C(=O)CC[C@@H]1CC(=O)OC      0
4  C[C@@H]1CCO[C@H]2Cn3cc(C(=O)NCc4ccc(F)cc4F)c(=O)c(O)c3C(=O)N12      0
5  CCCCC[C@H](O)C=C[C@H]1[C@H](O)CC(=O)[C@H]1CCCCCCC(=O)O      0
6  CCCCCCOC(=O)N=C(N)c1ccc(NCc2nc3cc(C(=O)N(CCC(=O)OCC)c4ccccn4)ccc3n2C)cc1      1
7  Nc1ncnc2c1ncn2[C@@H]1O[C@H](CO)[C@@H](O)[C@@H]1O      1
8  CN(C)CCCNC(=O)c1ccc(-c2cc(O)c3ncccc3c2)cc1      1

Q: Just curious, what result did `OC[C@H]1O[C@@H](OCCc2ccc(O)cc2)[C@H](O)[C@@H](O)[C@H]1O` get here?
A: 0

Q: Just curious, what result did `CN(C)CCN(Cc1ccc(Cl)cc1)c1ccccn1` get here?
A: 0

---

- PROTOCOL NOTES: Quantitative High-Throughput drug screen in 47 multiple myeloma cell lines against the NCATS MIPE library collection: KMS11_JCRBsus cell viability assay (AID 1919873); also: nearly all actives have a fitted effect of over 50% in size
- MEASUREMENT PARAMETERS: KMS11 myeloma viability, CellTiter-Glo ATP luminescence, 48 h; series mostly up to 45.8 µM
Results filed as inconclusive are left out. Active and inactive are the calls of the source. Calls follow the shape of the dose curve; as a rule, active = well fitted cell-killing curve with a large enough effect; inconclusive = small, poorly fitted or top-dose-only effect, or effect the other way; inactive = no such curve, though single readings can be large or run the other way.
Lab note: assign the record to one of active, inactive

COMPOUND	CLASS
COc1nccc(-c2c(-c3ccc(F)cc3)ncn2C2CCC(O)CC2)n1 (stereo not given)	active
Cc1ccc2c(c1)c1c(n2CCc2ccc(C)nc2)CCN(C)C1	inactive
CNC(=O)c1cc(Oc2ccc(NC(=O)Nc3ccc(Cl)c(C(F)(F)F)c3)c(F)c2)ccn1	active

Alright, here's another compound for you.
Q: Just curious, what result did `Cc1[nH]c(C=C2C(=O)Nc3ccc(S(=O)(=O)N(C)c4cccc(Cl)c4)cc32)c(C)c1C(=O)N1CCN(C)CC1` get here?
A: active

---

- PROTOCOL NOTES: High-throughput drug toxicity screening in the BPDCN cell line Gen2.2 (AID 1224824);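 also: cells exposed to compounds for 48 h before reading; 100% = DMSO and 0% = bortezomib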
- MEASUREMENT PARAMETERS: Gen2.2 BPDCN cells; at 45.8 µM (top of the series) unless noted
Parameter: cell viability, % of control (lower = more cytotoxic). Scope: all listed entries.
Please reply with the bare figure in % and do not write the unit itself.

> print(dat)
                               smiles.entry  numeric.value
1  C[C@@H](O)[C@H]1C(=O)N2C(C(=O)OCOC(=O)C(C)(C)C)=C(SC3CN(C4=NCCS4)C3)[C@H](C)[C@H]12           58.2
2  CN(C)CCN(C)C(=O)c1ccc(NC(=O)Nc2ccc(-c3nc(N4CCOCC4)c4ccn(CC(F)(F)F)c4n3)cc2)cc1           4.33
3  CN(C)c1ccccc1CN1CCCN(Cc2ccccc2N(C)C)C1c1ccncc1           13.5
4      CC(O)=C(C#N)C(=O)Nc1ccc(C(F)(F)F)cc1             75
5    CCCCOCCOc1nc(-c2ccc(C(=O)O)c(F)c2)sc1C            594
6  NC(=O)c1ccc(N(C(N)=O)c2c(F)cccc2F)nc1-c1ccc(F)cc1F            215
7  COc1cc2ncn(-c3cc(OCc4ccccc4S(C)(=O)=O)c(C#N)s3)c2cc1OC            146
8  COc1cc2c(cc1Cc1cccc(Cl)c1F)c(=O)c(C(=O)O)cn2[C@H](CO)C(C)C           19.1

# input for lookup
Q: I have this compound here, `CC(C)(C)c1nc(-c2cccc(NS(=O)(=O)c3c(F)cccc3F)c2F)c(-c2ccnc(N)n2)s1` , and I need its recorded cell viability, % of control (lower = more cytotoxic).
A: 25.6

---

- PROTOCOL NOTES: qHTS of pediatric cancer cell lines to identify multiple opportunities for drug repurposing: Confirmatory screen for NB1643 cells (AID 1347109); also: nearly all actives have a fitted effect of over 45% in size
- MEASUREMENT PARAMETERS: NB1643 neuroblastoma cell viability; series mostly up to 45.9 µM
Inconclusive results are not listed. Active and inactive are the calls of the source. Calls come from the whole dose curve; as a rule, active = well fitted cell-killing curve with a large enough effect; inconclusive = small, poorly fitted or top-dose-only effect, or effect the other way; inactive = no such curve, though single readings can be large or run the other way.
Lab note: assign the record to one of Y (active), N (inactive)

> print(dat)
                                   compound  class
1  CCC(=O)N1CCN(c2ccc(-n3c(=O)ccc4cnc5ccc(-c6cnc7ccccc7c6)cc5c43)cc2C(F)(F)F)CC1      N

Q: Just curious, what result did `CCCCn1c(=O)n(Cc2ccccc2F)c(=O)c2[nH]c(Cc3ccc(NC(C)=O)cc3)nc21` get here?
A: N

Q: Just curious, what result did `COc1cc(CNC(=O)CCCCC=CC(C)C)ccc1O` get here?
A: N

Q: Just curious, what result did CC1(C)CC(=O)c2c(C(F)(F)F)nn(-c3ccc(C(N)=O)c(NC4CCC(O)CC4)c3)c2C1 (stereo not given) get here?
A: Y

Q: Just curious, what result did `C=CC(=O)Nc1cccc(Sc2nc(Nc3ccc(N4CCN(C)CC4)cc3)ncc2Cl)c1` get here?
A: Y

The reported measurements were obtained from PubChem BioAssay (NCATS).
